I'd be grateful if you could share measured IC50 for these entries.
target: HLA-A*02:01; test: IEDB peptide-MHC binding, purified MHC/competitive/radioactivity; bounds were set here for any values at or beyond the usual limits of such assays; details: source organism: Human alphaherpesvirus 1
Give bare numbers, in nM.

Challenge: Tell me IC50 of `ALDHYDCLI` when tested on HLA-A*02:01.
Response given: 180

Parameter requested: IC50. Apply to each item below.
1. LLMGCDIVL
2. RLQTYLTDI
3. LMHATYFLA
4. LVLNMVYSI
5. GLVFRFSEV
6. YLATGALLA
7. ALMAGYFKI

Response given:
1: 2.3; 2: 827; 3: 96; 4: 94; 5: 262; 6: 55; 7: 49
